Here we list compounds with their recorded pKi when tested on Cannabinoid receptor 2 (Homo sapiens, UniProt P34972).
Sequence (P34972 whole entry): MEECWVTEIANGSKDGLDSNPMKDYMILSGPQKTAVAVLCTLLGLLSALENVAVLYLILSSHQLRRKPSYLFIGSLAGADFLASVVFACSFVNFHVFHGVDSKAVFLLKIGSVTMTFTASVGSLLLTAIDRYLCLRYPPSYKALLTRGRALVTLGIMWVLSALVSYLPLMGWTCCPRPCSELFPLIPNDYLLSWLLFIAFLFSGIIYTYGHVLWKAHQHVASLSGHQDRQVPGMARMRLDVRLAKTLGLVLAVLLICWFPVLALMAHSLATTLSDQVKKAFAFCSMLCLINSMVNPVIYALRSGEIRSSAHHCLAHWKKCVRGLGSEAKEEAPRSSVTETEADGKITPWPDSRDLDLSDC
The quantity pKi is defined as the negative base-10 logarithm of the molar concentration.

COMPOUND: Cc1cc(-c2cc(C(=O)N[C@@H]3C(C)(C)[C@@H]4CC[C@@]3(C)C4)nn2-c2ccccc2)ccc1Cl
TEST READOUT: pKi
EXPERIMENTAL RESULT: 7.03

COMPOUND: Cc1ccc(Cn2nc(C(=O)N[C@@H]3C[C@@H]4CC[C@@]3(C)C4(C)C)cc2-c2ccc(Cl)c(C)c2)cc1
TEST READOUT: pKi
EXPERIMENTAL RESULT: 7.54

COMPOUND: Cc1ccc(Cn2cc(C(=O)N[C@@H]3C(C)(C)[C@@H]4CC[C@@]3(C)C4)cc2-c2ccc(Cl)c(C)c2)cc1 (relative stereo)
TEST READOUT: pKi
EXPERIMENTAL RESULT: 7.82

COMPOUND: Cc1ccc(Cn2nc(/C=C/[C@@H]3C(C)(C)[C@@H]4CC[C@@]3(C)C4)cc2-c2ccc(Cl)c(C)c2)cc1 (relative stereo)
TEST READOUT: pKi
EXPERIMENTAL RESULT: 6.28

# ---- query compound ----
API: value(readout= pKi, system= Cannabinoid receptor 2 (Homo sapiens, UniProt P34972), query= Cc1ccc(Cn2cc(/C=C/[C@@H]3C(C)(C)[C@@H]4CC[C@@]3(C)C4)cc2-c2ccc(Cl)c(C)c2)cc1 ) 5.91
